Data provenance is PubChem BioAssay (NCATS).

- System: Hek293T
- procedureDetails: Primary qHTS to identify gynecologic anti-cancer compounds using libraries of approved drugs and bioactive compounds (AID 1345084); also: nearly all actives have a fitted effect of over 55% in size
- conditionDescription: Gynecologic cancer cell panel viability, ATPlite luminescence, 48 h, control line for the selectivity index; series mostly up to 57.5 µM
- Excerpt: National Center for Advancing Translational Sciences [NCATS] Assay Overview: Chemotherapeutic drug responses vary from cancer to cancer and from patient to patient. […] ATPlite is a luminescence based assay reliant on the conversion of a luciferase substrate to light in the presence of ATP. As a cytotoxic compound will suppress growth and decrease the number of cells, the concentration of ATP will decrease, and less light signal will be detected in the well. […]
Results filed as inconclusive are left out. Calls of active or inactive are those of the source. Calls follow the shape of the dose curve; as a rule, active = well fitted cell-killing curve with a large enough effect; inconclusive = small, poorly fitted or top-dose-only effect, or effect the other way; inactive = flat fitted curve, though single readings scatter.
Labels: active, inactive

compound	assayedSystem	groupLabel
Oc1ccc(Nc2nc(-c3ccc(Cl)cc3)cs2)cc1	Hek293T	inactive
CNC(=O)c1cccc2cc(Oc3ccnc4cc(OCC5(N)CC5)c(OC)cc34)ccc12	Hek293T	inactive
C[N+]1(C)[C@@H]2CC[C@H]1CC(OC(=O)C(O)c1ccccc1)C2 (some centres undefined)	Hek293T	inactive
COc1ccc(NS(=O)(=O)c2sc3ccc(Cl)cc3c2C)cc1N1CCNCC1	Hek293T	inactive
CCCCC(=O)N(Cc1ccc(-c2ccccc2-c2nn[nH]n2)cc1)C(C(=O)O)C(C)C (centres undefined)	Hek293T	inactive
CC1CCC2C(=CCC(O)C2(C)C)C1(C)Cc1c(O)cc(CO)c(C=O)c1O (centres undefined)	Hek293T	inactive
N#CCC(C1CCCC1)n1cc(-c2ncnc3[nH]ccc23)cn1 (centres undefined)	Hek293T	inactive
CN[C@@H]1[C@@H](O)[C@@H](O[C@@H]2[C@@H](O)[C@H](O[C@H]3O[C@@H]([C@@H](C)NC)CC[C@H]3N)[C@@H](N)C[C@H]2N)OC[C@]1(C)O	Hek293T	inactive
Cc1nc(C)c2c(n1)N(Cc1ccc(-c3ccccc3-c3nn[nH]n3)cc1)C(=O)CC2	Hek293T	inactive
COc1cc2nc(-c3cc(F)ccc3O)nc(N[C@@H]3CNC[C@H]3C(C)(C)O)c2cc1OC	Hek293T	inactive
CS(=O)(=O)c1ccc(-c2cn3ccccc3n2)cc1	Hek293T	active
Cn1cc(-c2cnc3ccc4ccc(CS(=O)(=O)NCc5ccccn5)cc4c(=O)c3c2)cn1	Hek293T	inactive
CC1OC2O[C@H]3[C@@H](OCC(O)[C@H]3O)OC(=O)C34CCC(C)(C)CC3C3=CCC5C6(C)CC(O)C(OC7OC(CO)C(O)C(O)C7O[C@@H]7OC[C@H](OC(=O)CC(C)(O)CC(=O)OC1C(OC1OCC(O)C(O)C1O)C2O)[C@@H](O)[C@H]7O)C(C)(CO)C6CCC5(C)C3(C)CC4 (some centres undefined)	Hek293T	inactive
CCCCc1nc(Cl)c(CO)n1Cc1ccc(-c2ccccc2-c2nnn[nH]2)cc1	Hek293T	inactive
CCN(CC)Cc1cccc(/C=C/c2nc3ccc(F)cc3c(=O)n2-c2ccccc2Cl)n1	Hek293T	inactive
CC(=O)C1=C(O)C2c3c[nH]c4cccc(c34)CC2C(C)(C)N(C)C1=O (centres undefined)	Hek293T	inactive
CN(C)CCCNc1nc(CN2CCN(C(c3ccc(Cl)cc3)c3ccc(Cl)cc3)CC2)nc2ccccc12	Hek293T	inactive
CC1(C)SC2C(NC(=O)[C@H](C(=O)O)c3ccsc3)C(=O)N2C1C(=O)O (some centres undefined)	Hek293T	inactive
Cc1ccccc1C(=O)Nc1ccc(C(=O)N2CCC[C@@H](O)c3cc(Cl)ccc32)c(C)c1	Hek293T	inactive
